- Test system: ROCK2 (rat)
- assayName: radiometric filter-binding kinase assay
- conditionDescription: compound 10.0 µM; accession and sequence are those of the human protein
propertyLabel: residual activity (%)

1: CC(C)(C#N)c1ccc(N2C(=O)OCc3cnc4ccc(-c5cnc6ccccc6c5)cc4c32)cc1
2: Cc1ccc(Sc2cnc(Nc3cccc(Br)n3)s2)cc1C(=O)N1CCN(C(=O)CN)CC1
q: Which record shows the lower residual activity: the first, 1 , or the second, 2 ? Use the label to indicate which entry you chose.
a: 2

a: NS(=O)(=O)OC[C@@H]1C[C@@H](n2ccc3c(N[C@H]4CCc5ccccc54)ncnc32)C[C@@H]1O
b: O=C(O)c1ccc(-c2c[nH]c3ncc(-c4ccccc4)cc23)cc1C1CCCC1
q: Which value of residual activity is smaller, the one for a or the one for b ? Give the label of your selection.
a: b
